- assayExplanation: Components of the Cytosolic LPS Sensing Pathway: Gene Identification via Genome-wide siRNA Screen
- particulars: RAW264.7 macrophages, IL-1a HTRF, actives lie on both sides, screened at 100 nM (by protocol), cells primed 5 h with Pam3CSK4 first
Hit rate of the full screen: of about 53,000 sequences, about 3,700 (7%) were called active. Many of the other results were omitted from the sample, so actives are more common in it than they were.
Class field: derived from z-score; ranges range A: < -0.9; range B: ≥ -0.9 and < 0.1; range C: ≥ 0.1

# count of solved cases: 5
>  <entrySequence>
CGGGAAGAGUACUUGUUUUTT against Cfl1

>  <answerLabel>
range C

$$$$
>  <entrySequence>
CCACAGGUUACAACAUAAATT against Pign

>  <answerLabel>
range A

$$$$
>  <entrySequence>
CCUGAAAGAAAAGAAGGACTT against Ptms

>  <answerLabel>
range C

$$$$
>  <entrySequence>
CCCAAAGUGCUUUACAAUGTT against Aard

>  <answerLabel>
range C

$$$$
>  <entrySequence>
GGACCAGGUUUGUUUUUUATT against Stom

>  <answerLabel>
range C

$$$$

Prompt: Sort into band: GGCCAGUUCUAUGUCAUGATT against Usf2
Completion: range A

Prompt: Sort into band: GGAGCCUGUCUUUUAUUGATT against Olfr938
Completion: range B

Prompt: Sort into band: GGAACACACAAUUUUAUCATT against 4933436I01Rik
Completion: range A

The measured values listed here are drawn from PubChem BioAssay AID1508600.
